For each of the compounds below, state its growth inhibition.
Experiment: NCI Yeast Anticancer Drug Screen. Data for the mlh1 rad18 strain (AID 175)
Conditions: S. cerevisiae mlh1 rad18 strain growth inhibition; at 50.0 µM; stronger effect = higher value
The panel holds about 79,000 compounds, 15% with a hit somewhere; the sample as a whole holds those more often.
Give bare numbers, in %.

>  <Compound>
Nc1ccc([As](O)O)c(C(=O)O)c1

>  <growth inhibition (%)>
-35.6

$$$$
>  <Compound>
CCOP(=O)(OCC)C(C)(CC)/N=C(\N)NC#N (stereo unspecified)

>  <growth inhibition (%)>
-18.1

$$$$
>  <Compound>
BrCCCCCCBr

>  <growth inhibition (%)>
5.4

$$$$
>  <Compound>
CS[P+]1(C)C=C(N2CCOCC2)CC1 (stereo unspecified)

>  <growth inhibition (%)>
10.3

$$$$
>  <Compound>
Nc1ccc(S(=O)(=O)c2ccc(NCN3C(=O)NC(=O)C(=O)C3=O)cc2)cc1

>  <growth inhibition (%)>
7.8

$$$$
>  <Compound>
COc1ccc(O)c(/C=C/[N+](=O)[O-])c1

>  <growth inhibition (%)>
98.9

$$$$

Look up growth inhibition for the entries below, preserving their order.
1. COc1cccc(/C=N/[N-]C(=O)c2ccncc2)c1[O-].[Ni+2].[OH3+]
2. Cc1cccc(-n2c(C)nc3ccccc3c2=O)c1C
3. Cc1cc(N(CCCl)CCCl)ccc1C=Nc1ccccc1C(=O)O
4. CC1c2c(n(C)c3ccccc23)C2CCC3(CO3)C1N2Cc1ccccc1 (stereo unspecified)
5. CCN(CC)C(=O)CCN1CC1
6. O=S(=O)(O)O.[W]
7. COC(=O)/C=C/[C@@H]1[C@H](C)N1S(=O)(=O)c1ccc(C)cc1 (stereo partly specified)

-14.2
-13.1
29.1
92.2
-1.25
-8.95
-23.5

// each listed compound needs a value for growth inhibition
1. CCN1C[C@]2(C)CC[C@H](O)C34C1C(C[C@@H]32)[C@@]1(O)CC[C@H]2C[C@@H]4[C@@H]1[C@H]2O
2. COc1cc(C(CC(=O)N(CCCl)CCCl)c2ccc3c(c2)OCO3)cc(OC)c1OC (stereo unspecified)
3. NC(=O)c1ccc(C(=O)Nc2ccc([As](=O)(O)O)cc2)cc1
4. Nc1ccccc1C(=O)c1ccccc1
5. O=C(SCC(NSc1ccccc1[N+](=O)[O-])C(=O)O)c1ccccc1 (stereo unspecified)

1. 31.2
2. 46.1
3. -15.9
4. 75.7
5. 47.9

Parameters: items (list). Returns: growth inhibition for each item.
1. Cc1ccc(O)cc1
2. CC[As](CC)SCC1OC(OC(C)=O)C(OC(C)=O)C(OC(C)=O)C1OC(C)=O (stereo unspecified)
3. ClCCN(CCCl)Cc1c2ccccc2cc2c1ccc1ccccc12
4. O=C1NC(=O)C(c2ccsc2)C(=O)N1
5. Oc1c(Cl)c(Cl)c(O)c(Cl)c1Cl

-30.1
98.9
65.5
1.45
98.8

Report growth inhibition for every entry below.
1. O=[N+]([O-])c1ccc2c(c1)Oc1cccnc1[Se]2
2. c1ccc(N2CCNCC2)nc1

[38.8, 0.15]

Quickly give me recorded growth inhibition for CCOS(=O)(=O)OCC
14.2

---

Would you kindly list growth inhibition for each of these molecules?
Experiment: NCI Yeast Anticancer Drug Screen. Data for the rad50 strain (AID 155);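 note: 0% = growth of vehicle-only cultures of the same strain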
Settings: S. cerevisiae rad50 strain growth inhibition; at 50.0 µM (retest, dose inferred, filed as 5.0); stronger effect = higher value
Compounds without any hit were thinned out: in the full panel of roughly 79,000, 15% have a hit. Calls of active or inactive are those of the source. Rule as the data show it: active = growth inhibition above about 70%; inactive = the rest.

Recorded results for 3 molecules are shown here.
>  <Molecule>
CC1=C(N2CC2)C(=O)c2nc3n(c2C1=O)CCC3OC(=O)CCl (stereo not given)

>  <Obs value>
61% (inactive)

$$$$
>  <Molecule>
O=[C-]c1ccccc1[C-]=O.[Pd+2].c1ccc([PH+](c2ccccc2)c2ccccc2)cc1.c1ccc([PH+](c2ccccc2)c2ccccc2)cc1

>  <Obs value>
44% (inactive)

$$$$
>  <Molecule>
CC(C)CC[CH2][Pb]([CH2]CCC(C)C)([CH2]CCC(C)C)[O]C(=O)C(Cl)(Cl)Cl

>  <Obs value>
98% (active)

$$$$

State the recorded growth inhibition for every item in the following list.
1. CCC[CH2][Sn]1([CH2]CCC)[O]CC(CN2CCOCC2)[O]1 (stereo not given)
2. CN(C)c1ccc(C(c2c(O)c3ccccc3oc2=O)c2c(O)c3ccccc3oc2=O)cc1

1: 34% (inactive); 2: 40% (inactive)

Return reported growth inhibition values for all items listed beneath this line.
1. O=[N+]([O-])c1cc(Cl)ccc1S(=O)(=O)F
2. CCOC(=O)c1[nH]cnc1/N=N/N(C)N
3. COS(=O)(=O)c1ccccc1
4. Cc1[cH-]c(=O)n(-c2ccccc2)n1.[Au+].[Au].c1ccc([PH+](c2ccccc2)c2ccccc2)cc1.c1ccc([PH+](c2ccccc2)c2ccccc2)cc1
5. [O-][n+]1onc2c1-c1nonc1CC2

1. 98% (active)
2. 98% (active)
3. -2% (inactive)
4. 65% (inactive)
5. 9% (inactive)
